- target: UniProt:Q8R4B8
- Sequence (Q8R4B8 whole entry): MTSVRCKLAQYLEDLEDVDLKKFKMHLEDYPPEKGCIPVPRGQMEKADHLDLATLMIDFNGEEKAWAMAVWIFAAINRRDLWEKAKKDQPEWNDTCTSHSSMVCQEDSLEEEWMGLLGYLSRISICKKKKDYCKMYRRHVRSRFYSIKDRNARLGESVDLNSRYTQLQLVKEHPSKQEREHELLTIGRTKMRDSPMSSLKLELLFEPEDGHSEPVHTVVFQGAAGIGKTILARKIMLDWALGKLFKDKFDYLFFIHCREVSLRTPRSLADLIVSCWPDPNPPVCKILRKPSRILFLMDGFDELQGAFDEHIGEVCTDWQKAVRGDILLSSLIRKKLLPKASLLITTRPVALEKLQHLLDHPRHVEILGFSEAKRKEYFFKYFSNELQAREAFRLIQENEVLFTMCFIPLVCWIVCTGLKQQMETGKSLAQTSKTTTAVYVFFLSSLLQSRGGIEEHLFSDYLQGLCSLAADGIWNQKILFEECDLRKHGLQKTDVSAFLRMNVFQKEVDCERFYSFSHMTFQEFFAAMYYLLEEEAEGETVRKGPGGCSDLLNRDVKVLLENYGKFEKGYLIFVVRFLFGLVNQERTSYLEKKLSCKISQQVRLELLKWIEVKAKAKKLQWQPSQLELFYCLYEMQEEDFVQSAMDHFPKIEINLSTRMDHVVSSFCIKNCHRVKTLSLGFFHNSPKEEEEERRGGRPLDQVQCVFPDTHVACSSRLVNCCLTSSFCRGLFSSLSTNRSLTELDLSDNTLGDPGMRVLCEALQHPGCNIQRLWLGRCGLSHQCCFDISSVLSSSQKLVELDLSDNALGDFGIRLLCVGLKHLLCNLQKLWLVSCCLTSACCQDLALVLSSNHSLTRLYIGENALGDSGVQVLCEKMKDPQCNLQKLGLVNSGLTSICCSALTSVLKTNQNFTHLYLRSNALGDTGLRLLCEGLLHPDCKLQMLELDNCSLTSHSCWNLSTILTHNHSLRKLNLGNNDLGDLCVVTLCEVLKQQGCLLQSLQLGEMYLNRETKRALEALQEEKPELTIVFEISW
- method_notes: Inhibition of IL-1β production in LPS + ATP stimulated mouse whole blood
- Assay type: cell-based
- experimental_setup: read-out: Geo Av IC50, IL-1β
readout_type: IC50 (nM)
Form entry: value (nM) — number only.

Input: Entry under review: CO[C@@H]1COc2c(S(=O)(=O)NC(=O)Nc3c4c(cc5c3CCC5)CCC4)cnn2C1 . Reported IC50?
Output: 94

###

- method_notes: Pharmacokinetics in male Beagle dogs after i.v. and p.o. administration
- Format: in vivo
- experimental_setup: plasma, po, Dog, 1 mg/kg, median
readout_type: Tmax (h)
# output: bare number, implied unit h

Input: Quick one: Tmax of CO[C@@H]1COc2c(S(=O)(=O)NC(=O)Nc3c4c(cc5c3CCC5)CCC4)cnn2C1 ?
Output: 1
